From: patent US20150376269A1

- TARGET UNDER TEST: T1, serum resistance-associated protein (SRA) from Trypanosoma brucei rhodesiense, recombinant SRA (SEQ ID NO: … (Trypanosoma brucei rhodesiense, UniProt O96637 31-274))
- T1 construct: also called SRA protein
- T1 sequence: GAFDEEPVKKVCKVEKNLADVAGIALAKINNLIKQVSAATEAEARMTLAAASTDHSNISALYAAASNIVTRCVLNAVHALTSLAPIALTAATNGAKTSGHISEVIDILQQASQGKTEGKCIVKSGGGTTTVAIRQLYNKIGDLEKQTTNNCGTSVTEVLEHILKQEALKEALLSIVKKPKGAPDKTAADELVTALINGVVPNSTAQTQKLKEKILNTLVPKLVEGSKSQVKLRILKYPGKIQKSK
- PROCEDURE TEXT: SPR, mAb captured, pH 4.5, 25C; competitor biotin-apoL1 peptide
MEASURED PROPERTY: % Blocking, apoL1 peptide (%)
Field format: number, assumed %, no unit text.

GET /values?readout=% Blocking, apoL1 peptide&item= H1H10059P (antibody, V domains shown, Fully human antibody with human IgG1 Fc (prefix H1H)) VH: QVQLVQSGAEVKKPGASVKVSCKAAGFTFIGYYIHWVRQAPGQGLEWMGWINSNSGDKDSAPKFQDRVTMTRDTSISTAYMELSRLRSDDTAVYFCAREGYNFGHFDYWGQGTLVTVSS VL: DIVMTQTPLSSPVTLGQPASISCRSSQSLVHSDGNTYLSWLQQRPGQPPRLLIYKISNRLSGVPDRFSGSGAGTDFTLKISRVEGEDVGVYYCMQGTQFPRTFGQGTKVEIK
100

Next binder: H1H10031P (antibody, V domains shown, Fully human antibody with human IgG1 Fc (prefix H1H)) VH: EVQLVESGGNVVRPGGSLRLSCSGSGFAFENYGMSWVRQGPGKGLEWVSNINWNGGSLNYVDSVKGRFTISRDNAKNSLYLQMNSLRAEDTALYYCARVIVYGMDVWGQGTTVTVSS VL: DIQMTQSPSSLSASVGDRVTITCRASQGIRNGLGWFQQKPGKAPKRLIYATSSLQSGVPSRFSGSGSGTEFTLTISSLQPEDFATYYCLQSNSYPWTFGQGTKVEIK
25

Next binder: H2aM10200N (antibody, V domains shown, Hybridoma-derived chimeric antibody, human variable domains and mouse constant domains (mouse Fc, prefix H2aM); also called H2M10200N) VH: QVQLVQSGAEVKKPGSSVKVSCKASGGTFSSYAISWVRQAPGQGLEWMGGIIPFFGTATYAQKFQGRVTITTDESTRTVYMELSSLRYEDTAVYYCARWYSGYGGDFDYWGQGTLVTVSS VL: AIQMTQSPSSLSASVGDRVTITCRASQGIRNDLGWFQQKPGKAPKLLIYAASSLQSGVPSRFSGSGSGTDFTLSISSLQPEDFATYYCLQDYSYPRTFGQGTKVEIK
100
